The values you see were collected from PubChem BioAssay (NCI).

Test system: NCI-H23 lung
Assay: NCI tumour cell line growth inhibition, 48 h; in the data active means GI50 below about 0.43 µM; inactive means the rest
Write down one outcome, taken from true (1) (active), false (0) (inactive)

COc1cccc(F)c1C(=O)c1cnc(NC2CCN(S(C)(=O)=O)CC2)nc1N :: false (0)
COc1cc(OCc2cccc(-c3ccc(C(O)c4nccs4)cc3)c2C)cc(OC)c1C=O (stereo not drawn) :: false (0)
C/C=C(\C)C(=O)O[C@H]1C=CC(=O)O[C@H]1CCC(=O)[C@H](C)O :: false (0)
CC(=O)OC1COC(Oc2c(C)c3c4c(c2O)[C@@H](C)CC[C@@H]4[C@@H](C)C[C@H]3C=C(C)C)C(O)C1OC(C)=O (stereo partly drawn) :: false (0)
CCCCOC(=O)CNC(=O)OC/C=C/C#CC#C/C=C/COC(=O)NCC(=O)OCCCC :: false (0)
COc1ccccc1/C=N\N/C(N)=N\N=C\c1ccccc1OC :: false (0)
N.N.N.N.O=C([O-])CCl.O=C([O-])CCl.[Co+3].[O-][Cl+3]([O-])([O-])[O-] :: false (0)
NC(N)=N/N=C/c1c(-c2ccsc2)nc2sccn12 :: false (0)

Task: Could you kindly confirm the outcome this assay logged for Cc1cc(C)c2c(n1)sc1c(Nc3ccc(Cl)cc3)ncnc12 ?
Output: true (1)

Task: Now consider NC(=S)N/N=C/C(=O)O and answer again.
Output: false (0)

Task: Please answer likewise for C#CCOc1cccc(-c2ncc3cc(NC(=O)CCl)ccc3n2)c1
Output: false (0)

Task: Moving on to the next compound: COc1ccc(/C=C\[N+](=O)[O-])cc1OC
Output: false (0)

Task: What do you have for CC1(C)N=C(N)N=C(N)N1c1ccc(CCCCc2ccc(Cl)cc2S(=O)(=O)F)c(Cl)c1 ?
Output: false (0)

Task: Follow-up item: Cc1cc(Cl)cc(OCCn2cc(F)cn2)c1-c1nc(N)nc2c1CN(C(=O)NCC(C)(F)F)C2
Output: true (1)

* * *

Test system: UACC-257 melanoma
Test: NCI tumour cell line growth inhibition, 48 h
Catalogue of TGI readings, one per entry.
Dear colleague, please return just the value in µM, with no unit written.

COc1cc(/C=C/C(=O)c2ccc(O)c(OC)c2)ccc1O :: 45.9
Cc1n(Cc2ccccc2)c2c([n+]1C)C(=O)c1ccccc1C2=O :: 0.14
O=C(O)C(O)C(O)C(O)C(O)c1nc2ccccc2s1 (stereo not given) :: 30.9

Let us move to another entry and its TGI.
Task: Field: TGI (UACC-257 melanoma). Entry: COc1ccc(/C=C\[N+](=O)[O-])cc1OC
Output: 3.38

* * *

The reader will find reported GI50 values listed item by item below.
Tested on: OVCAR-4 ovarian
Assay: NCI tumour cell line growth inhibition, 48 h

Examples from the recorded data:
COC(=O)c1ccc2c(c1)nc(NC(=O)c1ccccc1)n2CCCc1ccccc1 :: 2.93 µM
CCCCC#CC1=C(Br)C(=O)OC1 :: 3.99 µM
COc1cc(Nc2ncccc2C(=O)NCc2cn(Cc3cccc(Oc4ccccc4)c3)nn2)cc(OC)c1 :: 5.42 µM
NS(=O)(=O)c1ccc(/C=C/c2ccc(O)c(O)c2)cc1 :: 11.6 µM
CC1(C)N=C(N)N=C(N)N1c1ccc(CCCCc2ccc(Cl)cc2S(=O)(=O)F)c(Cl)c1 :: 3.11 µM
CC/C=C\C[C@H](O)C/C=C1/C(=O)C(Cl)=C[C@@H]1C/C=C\CCCC(=O)OC :: 0.723 µM
CCN(CC)CCC(CNc1ccnc2cc(Cl)ccc12)c1ccc(Cl)cc1 (configuration not stated) :: 0.764 µM
CN1CCN(C2CCN(C(=O)Nc3cc(Oc4ccc(NC(=O)C5(C(=O)Nc6ccc(F)cc6)CC5)c(F)c4)ccn3)CC2)CC1 :: 1.14 µM
N.N.N.N.O=C([O-])CCl.O=C([O-])CCl.[Co+3].[O-][Cl+3]([O-])([O-])[O-] :: > 100 µM
O=C(O)COc1ccc2c(=O)c3sc4c(=O)c5ccccc5c(=O)c4c3c(=O)c2c1 :: 14.1 µM

Task: What does the data say about its GI50? Entry: CNCc1ccccc1-c1csc([C@@H](C)Nc2nc(C)nc3cc(OC)c(OC)cc23)c1
Output: 2.4 µM

Task: Please give the result for S=C(Nc1ccc(Cl)cc1)Nc1ccc(-c2nc3ccccc3s2)cc1 too.
Output: 14.4 µM

* * *

The following compounds are listed with their measured TGI values.
System: LXFL 529 NSCLC
Test: NCI tumour cell line growth inhibition, 48 h
Express your answer in µM, writing the number without its unit.

# example entries with known answers
COc1cccc2c1C(=O)c1c(O)c3c(c(O)c1C2=O)C[C@@](O)(C(=O)CO)C[C@@H]3OC1CC(N)CC(C)O1 (stereo not given in full) :: 0.951
O=c1/c(=C/c2ccccc2[N+](=O)[O-])sc2nnc(-c3ccco3)n12 :: 34.5

Query compound follows.
Task: Fill in the blank: the reported TGI of COc1cc2c(cc1OC)C(CC1=C(c3ccccc3)CN3CCc4cc(OC)c(OC)cc4C3C1)NCC2 (stereo not given) is ____.
Output: 31.1

* * *

Test system: HCT-116 colon
Assay: NCI tumour cell line growth inhibition, 48 h
Catalogue of TGI readings, one per entry.

Guide cases for TGI, answers given:
COc1cc(OC)cc(Oc2nc3ccccc3nc2C(F)(F)F)c1 :: > 100 µM
CSC1=Nc2c(c(C)c(C)n2COC(CO)CO)C2=NC(=O)C(C)N12 (stereo unspecified) :: > 100 µM
O=CCC1CCCCC1 :: > 100 µM
O=C1CCC(Cl)=CC2CCCN12 (stereo unspecified) :: > 100 µM
CCOC(=O)CCC(NC(=O)Cc1ccc(Nc2nc3cc(F)c(F)cc3nc2C(=O)OCC)cc1)C(=O)OCC (stereo unspecified) :: > 100 µM

Task: Can you look up the measured TGI of COc1cccc(CCNC(=O)Cc2ccccc2CCO)c1 for me?
Output: > 100 µM

Task: Again, but for CC1(C)S[C@@H]2[C@H](NC(=O)C3(N)CCCCC3)C(=O)N2[C@H]1C(=O)O
Output: > 100 µM

Task: Try the compound CC(C)Cc1ccc(C(C)C(=O)N2CCN(/C=C/c3ccccc3)CC2)cc1 (stereo unspecified)
Output: 26.3 µM

* * *

System: MOLT-4 leukemia
Test: NCI tumour cell line growth inhibition, 48 h; in the data active = GI50 below about 0.43 µM; inactive = the rest
Assign a class; possible classes are true (1) (active), false (0) (inactive)

These solved cases illustrate the format of a correct answer.
Oc1ccc(Nc2ncnc3c2sc2ncccc23)cc1 :: true (1)
COc1cccc(CC(C)=C(c2ccc(OCCN(C)C)cc2)c2ccc(OCCN(C)C)cc2)c1 :: false (0)
CO/N=C(/C)c1cccc(Nc2cc(-n3nnc4ccccc43)nc3ccccc23)c1 :: false (0)
CC1(C)N=C(N)N=C(N)N1c1ccc(CCCCc2ccc(Cl)cc2S(=O)(=O)F)c(Cl)c1 :: false (0)

Task: # lookup: test call for CC(=O)Nc1ccc(S(=O)(=O)N2C(=O)CCC2C(=O)Nc2ccc(Br)cc2)cc1 (stereo not given)
Output: false (0)

* * *

Test system: NCI-H522 lung
Assay: NCI tumour cell line growth inhibition, 48 h
endpoint.label: TGI

Past entries and their recorded results:
O=S(=O)(O)CCCc1cccc2ccccc12 :: > 100 µM
CC1(C)COC(C2(C)C(=O)C=C(c3ccccc3)c3ccccc32)=N1 (stereo not given) :: > 100 µM
COC(=O)C1c2cc3c(cc2C(OC2OC(C)C(OC)C(C)(OC)C2OC)CC1(C)O)C(=O)c1c(O)cc2c(c1C3=O)OC1OC2(C)C(O)C([N+](C)(C)[O-])C1O (stereo not given) :: 0.809 µM

Task: # input compound: Nc1ccc2c(c1)C(=O)N1CCC[C@H]1C(=O)N2 ; wanted: its TGI
Output: > 100 µM

Task: Consider next the compound C/C=C(\C)C(=O)O[C@H]1C=CC(=O)O[C@H]1CCC(=O)[C@H](C)O in the same way.
Output: 33.7 µM

Task: // query: CCCC(=O)NC(NC1CCCCC1)(C(=O)OCC)C(F)(F)F (stereo not given)
Output: > 100 µM

Task: Same read-out for COc1ccc(/C=C2\CCNC2=O)cc1 ?
Output: > 100 µM

Task: What would you report for CC1=C(C(=O)Nc2ccc(F)c(Cl)c2)C(c2ccccc2O)NC(=S)N1 (stereo not given) ?
Output: > 50 µM

Task: What about this compound? O=C1c2ccccc2C(=O)N1CCn1ccc(NC(c2ccccc2)(c2ccccc2)c2ccccc2)nc1=O
Output: 45.9 µM

Task: Request: CC(C)(C)OC(=O)NC1CCCCC1NC(=O)C(=O)NC1CCCCC1NC(=O)OC(C)(C)C (stereo not given)
Output: > 100 µM

Task: What do you have for Cc1ccc(-n2cnc(C(=N)C#N)c2N)cc1 ?
Output: > 100 µM

Task: Field entry: O=C1C2SC34c5c2c2ccccc2n5CCC3CCCN14 (stereo not given)
Output: > 100 µM
